FYI, the data here is from patent US20260209362A1.

Biological target: T1, human IL-12Rβ2 (human, UniProt Q99665 24-862)
T1 construct: Expressed on HEK293T cells transiently transfected with a pcDNA3 plasmid (Genscript clone OHu21785); also called hIL-12RB2; IL-12 receptor β2 subunit
T1 sequence: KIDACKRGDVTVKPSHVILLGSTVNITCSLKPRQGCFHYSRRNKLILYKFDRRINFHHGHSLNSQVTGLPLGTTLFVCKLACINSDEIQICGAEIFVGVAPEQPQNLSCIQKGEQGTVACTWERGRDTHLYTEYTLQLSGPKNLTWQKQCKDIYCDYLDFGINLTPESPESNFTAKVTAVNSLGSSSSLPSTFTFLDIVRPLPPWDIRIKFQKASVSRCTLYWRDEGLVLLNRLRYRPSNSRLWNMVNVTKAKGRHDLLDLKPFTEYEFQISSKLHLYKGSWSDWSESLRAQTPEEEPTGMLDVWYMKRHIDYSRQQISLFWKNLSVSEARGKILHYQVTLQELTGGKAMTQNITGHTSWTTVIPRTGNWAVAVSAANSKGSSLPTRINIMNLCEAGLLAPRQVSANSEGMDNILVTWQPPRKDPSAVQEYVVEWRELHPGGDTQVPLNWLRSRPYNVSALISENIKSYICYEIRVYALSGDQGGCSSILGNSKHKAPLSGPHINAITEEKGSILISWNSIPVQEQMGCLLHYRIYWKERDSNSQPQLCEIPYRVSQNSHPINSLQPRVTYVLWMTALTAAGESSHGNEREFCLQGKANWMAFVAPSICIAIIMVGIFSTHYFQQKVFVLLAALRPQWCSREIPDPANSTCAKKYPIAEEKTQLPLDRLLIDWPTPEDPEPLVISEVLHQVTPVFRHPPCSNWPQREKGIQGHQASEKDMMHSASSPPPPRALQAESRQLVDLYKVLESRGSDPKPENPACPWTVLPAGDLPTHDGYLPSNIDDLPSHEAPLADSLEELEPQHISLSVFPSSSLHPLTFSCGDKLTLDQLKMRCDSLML
Test: flow cytometry, P.E. on transfected HEK293T cells

binder: anti-IL-12Rβ2 VHH clone 3CRHM12 (VHH, not shown: small tags and cut ends, periplasmic extract) VHH: QVQLQESGGGSVQAGGSLRLSCAVSGRTVSDYAMGWFRQAPGKEREFVAAMSSSETTVYPNSVKGRITISRDNAKNAVYLQMNALKPEDTAVYYCSMGPIVTFQGLARQNEYHYWGQGTQVTVSS
% cells bound (%): 30.4
//
binder: anti-IL-12Rβ2 VHH clone 3CRH18 (VHH, not shown: small tags and cut ends, periplasmic extract) VHH: QVQLQESGGGLVQPGGSLRLSCTASGNIVSIYNMDWYRQAPGNQREWVASITSSGDPYYDGSAKGRFTISRDNAKMTVYLQMNSLRPEDTAVYYCKVPTEKGNYWGQGTQVTVSS
% cells bound (%): 41.7
//
binder: anti-IL-12Rβ2 VHH clone 3CAHM11 (VHH, not shown: small tags and cut ends, periplasmic extract) VHH: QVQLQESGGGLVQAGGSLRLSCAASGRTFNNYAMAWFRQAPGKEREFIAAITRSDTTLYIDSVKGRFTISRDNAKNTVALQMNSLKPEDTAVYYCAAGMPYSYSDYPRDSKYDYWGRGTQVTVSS
% cells bound (%): 37.6
//
binder: anti-IL-12Rβ2 VHH clone 3CRHS128 (VHH, not shown: small tags and cut ends, periplasmic extract) VHH: QVQLQESGGGLVQPGGSLRLSCAASGFTFSTSGMHWFRQAPGKGLEWVSSIGATVDNSYYASSVKGRFTISRDNAKNTLYLLMNSLKSEDTAVYYCSKDPTGSSRGQGTQVTVSS
% cells bound (%): 50.5
